Listing of recorded log10 solubility kinetic by entry.
- experimental.protocol: Kinetic solubility of the compound in PBS at pH 7.4
Starred links: 1 amine or outer side, 2 acyl side, 3 side chain; linkers in the order of their positions; H or OH if unused. Non-standard residues stand in square brackets, D forms with d. Residues, ends and D or L forms follow the SMILES beside them. Ile(ψThz) = CC[C@H](C)[C@H](N[*:1])c1nc(C(=O)[*:2])cs1; LeuThz(4-CO) = CC(C)C[C@H](N[*:1])c1nc(C(=O)[*:2])cs1; ValThz = CC(C)[C@H](N[*:1])c1nc(C(=O)[*:2])cs1; NMeF = CN[C@@H](Cc1ccccc1)C(=O)O; NMeA = CN[C@@H](C)C(=O)O
quantity.name: log10 solubility kinetic (log10 of the value in µM)

| molecule | reported.value |
| --- | --- |
| CC[C@H](C)[C@@H]1NC(=O)[C@@H]2CCCN2C(=O)[C@H](Cc2ccccc2)NC(=O)[C@H](C)N(C)C(=O)c2csc(n2)[C@H]([C@@H](C)CC)NC(=O)[C@@H]2CCCN2C1=O (cyclo(FPIP[Ile(ψThz)][NMeA])) | 2.52 |
| CC[C@H](C)[C@@H]1NC(=O)[C@@H]2CCCN2C(=O)[C@H](Cc2ccccc2)NC(=O)[C@H](CC(C)C)NC(=O)c2csc(n2)[C@H]([C@@H](C)CC)NC(=O)[C@@H]2CCCN2C1=O (cyclo(FPIP[Ile(ψThz)]L)) | 1.59 |
| CC[C@H](C)[C@@H]1NC(=O)[C@@H]2CCCN2C(=O)[C@H](Cc2ccccc2)N(C)C(=O)[C@H](CC(C)C)NC(=O)c2csc(n2)[C@H]([C@@H](C)CC)NC(=O)[C@@H]2CCCN2C1=O (cyclo(IP[Ile(ψThz)]L[NMeF]P)) | 2.12 |
| CC[C@H](C)[C@@H]1NC(=O)[C@@H]2CCCN2C(=O)[C@H](Cc2ccccc2)N(C)C(=O)[C@H](C)NC(=O)c2csc(n2)[C@H]([C@@H](C)CC)NC(=O)[C@@H]2CCCN2C1=O (cyclo(A[NMeF]PIP[Ile(ψThz)])) | 2.02 |
| CC[C@H](C)[C@@H]1NC(=O)[C@@H]2CCCN2C(=O)[C@H](Cc2ccccc2)NC(=O)[C@H](C)NC(=O)c2csc(n2)[C@H](C(C)C)NC(=O)[C@@H]2CCCN2C1=O (cyclo(AFPIP[ValThz])) | 2.45 |
| CC[C@H](C)[C@@H]1NC(=O)[C@@H]2CCCN2C(=O)[C@H](Cc2ccccc2)NC(=O)[C@H](C)NC(=O)c2csc(n2)[C@H](CC(C)C)NC(=O)[C@@H]2CCCN2C1=O (cyclo(AFPIP[LeuThz(4-CO)])) | 2.26 |
| CC[C@H](C)[C@@H]1NC(=O)[C@@H]2CCCN2C(=O)[C@H](Cc2ccccc2)NC(=O)[C@H](C)NC(=O)c2csc(n2)[C@H]([C@@H](C)CC)NC(=O)[C@@H]2CCCN2C1=O (cyclo(AFPIP[Ile(ψThz)])) | 2.17 |
| CC[C@H](C)[C@@H]1NC(=O)c2csc(n2)[C@H]([C@@H](C)CC)NC(=O)[C@@H]2CCCN2C(=O)[C@H]([C@@H](C)CC)NC(=O)[C@@H]2CCCN2C(=O)[C@H](Cc2ccccc2)N(C)C1=O (cyclo(I[NMeF]PIP[Ile(ψThz)])) | 1.32 |
